Tested on: K-562 leukemia
Test: NCI tumour cell line growth inhibition, 48 h
metric: TGI

Examples with answers:
CCCCCCCCCC[C@@H](O)[C@@H]1CC[C@@H]([C@@H]2CC[C@@H]([C@@H](O)CCCCCCCCCC[C@H](O)CC3=CC(C)OC3=O)O2)O1 (stereo not given in full) : > 100 µM
CC(C)(C)OP(=O)(OC(C)(C)C)C(O)c1ccc(/C=C(\C#N)C(N)=O)cc1 (stereo not given) : > 100 µM
C1OC1CN1CCN(CC2CO2)CC1 (stereo not given) : > 100 µM

Below is a list of molecules. For each, state its recorded TGI.
1. O=C(Nn1c(-c2cccs2)nc2ccc(I)cc2c1=O)c1ccccc1
2. CN(C)CCC(/C=C/c1ccccc1)=N\Nc1ccc(Cl)c(Cl)c1
3. CC1=CC(C)(c2c[nH]c3ccccc23)CC(C)(C)c2c1[nH]c1ccccc21 (stereo not given)
4. c1cc(-c2ccc(-c3nc4ccc(C5=NCCN5)cc4s3)s2)ccc1C1=NCCN1

["> 100 µM", "6.03 µM", "53.9 µM", "4 µM"]

Below is a list of molecules. For each, state its recorded TGI.
1. O=C1Nc2cc(-c3cccc(O)c3)ccc2/C1=C/c1ccc[nH]1
2. O/N=C1\CC2(N3CCOCC3)CCC1(c1ccccc1)CC2
3. c1csc(-c2nccc3c2[nH]c2ccccc23)c1

> 100 µM
> 100 µM
63.8 µM

###

Tested on: K-562 leukemia
Assay: NCI tumour cell line growth inhibition, 48 h; in the data active = GI50 below about 0.43 µM; inactive = the rest
Returns: one label drawn from TRUE for active, FALSE for inactive

Reference set (2 entries):
CCN(CC)c1c(-c2ccccc2)n[nH]c1C(=O)OC : FALSE
Nc1c(C(=O)Nc2ccccn2)sc2nc3c(cc12)C(O)CCC3 (centres undefined) : TRUE

Test call for this molecule, please: CCC1C(C)C=NN1c1nc(N)nc(C(C#N)=Nc2ccc(N(C)C)cc2)n1 (centres undefined) FALSE

Test call for this molecule, please: Cc1cc(C(=O)Nc2n[nH]c3ccccc23)n[nH]1 FALSE

Test call for this molecule, please: CCCCCCCCCC[C@@H](O)[C@@H]1CC[C@@H]([C@@H]2CC[C@@H]([C@@H](O)CCCCCCCCCC[C@H](O)CC3=CC(C)OC3=O)O2)O1 (some centres undefined) FALSE

Test call for this molecule, please: C[C@]12CC[C@@H]3c4ccc(O)cc4CC[C@H]3[C@@H]1CC[C@@H]2NS(=O)(=O)c1ccc(Br)cc1 FALSE

Test call for this molecule, please: O=C1/C=C/[C@@H](O)[C@@H]2C[C@@H](O)C[C@H]2/C=C/CCC[C@H](CCc2ccc3ncccc3c2)O1 TRUE

Test call for this molecule, please: CN(C)C(=O)OCc1nc2c(N3CCOCC3)nc(-c3ccccc3)nc2n1C TRUE

Test call for this molecule, please: O=C(Nn1c(-c2cccs2)nc2ccc(I)cc2c1=O)c1ccccc1 FALSE

###

Tested on: SNB-19 CNS
Assay: NCI tumour cell line growth inhibition, 48 h
metric: TGI (µM)
Answers are plain numbers, in µM.

Examples with answers:
C=CC(COC(=O)C(C)(C)OC(C)=O)c1ccc(OC(=O)C(C)C)c(OC)c1 (stereo not given) : 23.2
Cc1ccc(S(=O)(=O)OCC#CCOS(=O)(=O)c2ccc(C)cc2)cc1 : 22.2
COc1ccc(/C(C)=N/NC(=O)CSc2nc3ccccc3c(=O)n2CCc2ccc(S(N)(=O)=O)cc2)cc1 : 4.78

Please look at the following compound next.
Looking for the measured TGI of CCOC(=O)C(C)Sc1nnc(COc2ccc(Cl)cc2)n1-c1ccccc1 (stereo not given) , can you help? 40.1

###

Tested on: A498 renal
Test: NCI tumour cell line growth inhibition, 48 h
Task for the reader: assign each of the following compounds its reported GI50.

Examples with answers:
CCN(CC)c1c(-c2ccccc2)n[nH]c1C(=O)OC : 0.519 µM
CC(C)(C)c1cc(C(=O)Nc2ccc(C(=O)NCCN)cc2)cc(C(C)(C)C)c1 : 8.27 µM
Clc1ccc(C2CC(c3cccc(Nc4ccncc4)c3)=NN2c2ccc(Cl)cc2)cc1 (stereo not drawn) : 1.56 µM
Nc1nonc1-c1nc2ccccc2n1Cc1ccc(F)cc1 : 2.2 µM
CNC(=O)c1cc(Oc2cccc3nc(NC(=O)Nc4cc(C(F)(F)F)cc(C(F)(F)F)c4)ccc23)ccn1 : 1.99 µM

Below is a list of compounds. For each, state its recorded GI50.
1. CNCC/C=C1\c2cc3c(cc2-c2c1c1cc(OC)c(OC)cc1c(=O)n2C)OCO3
2. COc1cccc(/C=C/c2nc3c(cnn3-c3ccccc3)c(=O)[nH]2)c1

1. 2.97 µM
2. > 100 µM

###

Task for the reader: assign each of the following molecules its reported TGI.
Tested on: IGROV1 ovarian
Experiment: NCI tumour cell line growth inhibition, 48 h

Examples with answers:
COC(=O)C1CCC(=O)N1CN(C(C)=O)c1cc(OC)ccc1OC (centres undefined) : > 100 µM
CSc1nc(Nc2ccccc2Cl)c2c(N)nn(C)c2n1 : > 100 µM
N#Cc1ccc(-c2c(-c3ncn[nH]3)sc(N3CCOCC3)c2C#N)c(F)c1 : 0.948 µM
C=C(Cl)/C(=C\Cl)CCC(Cl)C(C)C (centres undefined) : > 100 µM
O=C(CSCC(=O)N/N=C/c1ccccc1O)N/N=C\c1ccccc1O : > 100 µM
CCOC(=O)c1nc2ccccc2nc1NCc1ccc(OC)c(OC)c1 : > 100 µM
O=C(O)c1nc2ccc(Cl)cc2[nH]c1=O : > 100 µM
Cc1ccc(S(=O)(=O)NC(=O)Nc2cccc(S(N)(=O)=O)c2)cc1 : > 100 µM

Below is a list of molecules. For each, state its recorded TGI.
1. O=C1c2c(ccc3c2CCC3)CC1Cc1ccc2c(c1)CCC2 (centres undefined)
2. CC(=O)OC1OC(c2ccoc2)C[C@@]12C1CCC3O[C@]3(C)[C@]1(C)[C@H](OC(C)=O)[C@H](OC(C)=O)[C@H]2C (some centres undefined)
3. O=C1Nc2cc(-c3cccc(O)c3)ccc2/C1=C/c1ccc[nH]1
4. COc1cccc(-c2nn(-c3ccccc3)cc2-c2ccnc(NCCCNC(=O)c3cccc(C(F)(F)F)c3)c2)c1
5. Cn1c(=O)nc2n(-c3ccc(Cl)cc3)c(-c3ccccc3)c(-c3ccccc3)nc-2c1=O
6. Cc1cc(-c2nnc(/C=C/c3ccc4c(c3)OCO4)o2)n[nH]1
7. CC(=O)c1c(SCCN2CCOCC2)n(-c2ccccc2)c(=S)n(-c2ccccc2)c1=O

1: > 100 µM; 2: > 37.5 µM; 3: 10.1 µM; 4: 32 µM; 5: > 100 µM; 6: > 50 µM; 7: 34.6 µM

###

Task for the reader: assign each of the following compounds its reported GI50.
System: NCI-H226 lung
Test: NCI tumour cell line growth inhibition, 48 h

Examples with answers:
N#Cc1ccc(-c2c(-c3ncn[nH]3)sc(N3CCOCC3)c2C#N)c(F)c1 : 1830 nM
O=C1CC[C@H](N2Cc3c(OCc4ccc(CN5CCOCC5)cc4)cccc3C2=O)C(=O)N1 : > 100000 nM

Below is a list of compounds. For each, state its recorded GI50.
1. COc1cccc(-c2nn(-c3ccccc3)cc2-c2ccnc(NCCCNC(=O)c3cccc(C(F)(F)F)c3)c2)c1
2. [N-]=[N+]=NCCCn1c2c(c3ccc([N+](=O)[O-])cc3c1=O)C(=O)c1cc3c(cc1-2)OCO3
3. O=C(NCCc1ccccc1)Nc1ccc2cc3ccc(NC(=O)NCCc4ccccc4)cc3nc2c1

["2240 nM", "< 10 nM", "1950 nM"]

###

Test system: DU-145 prostate
Assay: NCI tumour cell line growth inhibition, 48 h
Task for the reader: assign each of the following compounds its reported TGI.
One number for each entry, in nM.

CC[C@@]1(OC(=O)C(N)CCCCN)C(=O)OCc2c1cc1n(c2=O)Cc2cc3ccccc3nc2-1 (stereo partly drawn) : 250

Please look at the following compound next.
Looking for the measured TGI of CC(=O)Nc1ccc2c3c(cc(O)c2c1)N(C(=O)CCCCC(=O)N1CC(CCl)c2c1cc(O)c1cc(NC(C)=O)ccc21)CC3CCl (stereo not drawn) , can you help? 209

###

System: MDA-N
Experiment: NCI tumour cell line growth inhibition, 48 h
metric: TGI

CCOC(=O)c1nc2ccccc2n(CC)c1=O : > 100 µM
C[N+](C)(C)CC1CCC(C[N+](C)(C)C)C1=O (stereo not given) : 19.3 µM
CC1C2CCC3C(O)C2(CC(O)C2(O)C1CC(O)C2(C)C)CC3(C)O (stereo not given) : > 100 µM

Below is a list of compounds. For each, state its recorded TGI.
1. CNCCN[C@@H]1c2cc3c(cc2[C@@H](c2cc(OC)c(O)c(OC)c2)[C@H]2C(=O)OC[C@@H]21)OCO3
2. Nc1c(OCC(=O)O)ccc2cc(S(=O)(=O)O)ccc12
3. COC1=N[C@H](C(C)C)C(OC)=N[C@H]1Cc1ccc(C[C@@H]2N=C(OC)[C@@H](C(C)C)N=C2OC)s1
4. O=C1C[C@H](COCc2ccccc2)NC(=O)C[C@H](COCc2ccccc2)NC(=O)C[C@H](COCc2ccccc2)N1
5. c1csc(-c2nccc3c2[nH]c2ccccc23)c1

3.26 µM
> 100 µM
> 100 µM
> 100 µM
35.4 µM

Below is a list of compounds. For each, state its recorded TGI.
1. CC(C)=Cc1cc(C)c2c3c(c(O)c(O)c(C)c13)C(C)=CC2=O
2. Cc1csc(NNC(N)=O)n1

1: > 100 µM; 2: > 100 µM
